Protocol Text: Stability in mouse serum assessed as drug degradation at volume ratio of 1:19 measured after 6 hrs by RP-HPLC analysis
Format: ADME, cell-free
Condition Info: read-out: Drug degradation
Residues, ends and D or L forms follow the SMILES beside them. *: point of attachment. Myristoyl = CCCCCCCCCCCCCC(=O)*

| Molecule | Unit Name | metabolised at 6 h |
| --- | --- | --- |
| CCCCCCCCCCCCCC(=O)N[C@@H](CCCNC(=N)N)C(=O)N[C@@H](Cc1c[nH]c2ccccc12)C(=O)N[C@@H](Cc1c[nH]c2ccccc12)C(N)=O (Myristoyl-Arg-Trp-Trp-NH2) | % | 70 |
